- experimental-system: 5-hydroxytryptamine receptor 2A (Homo sapiens, UniProt P28223)
- Sequence (P28223 whole entry): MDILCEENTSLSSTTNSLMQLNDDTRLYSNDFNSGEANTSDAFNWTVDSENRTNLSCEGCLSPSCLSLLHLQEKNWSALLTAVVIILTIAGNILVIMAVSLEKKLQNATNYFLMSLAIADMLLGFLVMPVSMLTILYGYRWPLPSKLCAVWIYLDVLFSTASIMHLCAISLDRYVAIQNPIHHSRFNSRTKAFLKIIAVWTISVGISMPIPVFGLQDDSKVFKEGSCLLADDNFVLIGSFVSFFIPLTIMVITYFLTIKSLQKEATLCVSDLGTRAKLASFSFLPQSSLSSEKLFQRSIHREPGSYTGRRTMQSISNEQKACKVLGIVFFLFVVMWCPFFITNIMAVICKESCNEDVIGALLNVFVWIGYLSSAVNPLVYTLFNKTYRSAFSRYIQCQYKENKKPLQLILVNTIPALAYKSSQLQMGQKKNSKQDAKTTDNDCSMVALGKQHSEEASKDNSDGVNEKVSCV
- procedure-text: Agonist activity at human 5HT2A receptor expressed in HEK293 cells assessed as induction of intracellular calcium release measured for 90 secs by fluorescence assay
- Format: functional, cell-based
- conditions-used: read-out: EC50
Reported pEC50 by item:
Note: pEC50 values are expressed as the negative base-10 logarithm of concentration in M.

compound: Clc1cccc(COc2cncc(N3CCNCC3)n2)c1
experimental-system: 5-hydroxytryptamine receptor 2A (Homo sapiens, UniProt P28223)
test-value: 7.12
//
compound: O=c1c2c(on1Cc1ccccc1)CCNCC2
experimental-system: 5-hydroxytryptamine receptor 2A (Homo sapiens, UniProt P28223)
test-value: 6.26
//
compound: Clc1cncc(N2CCNCC2)n1 [MK-212]
experimental-system: 5-hydroxytryptamine receptor 2A (Homo sapiens, UniProt P28223)
test-value: 6.38
//
compound: C[C@H](N)Cn1ccc2cc(F)c(Cl)cc21
experimental-system: 5-hydroxytryptamine receptor 2A (Homo sapiens, UniProt P28223)
test-value: 7.57
//
compound: Cn1c2c(c3ccccc31)CCNCC2 [PNU-22394]
experimental-system: 5-hydroxytryptamine receptor 2A (Homo sapiens, UniProt P28223)
test-value: 7.64
//
compound: c1ccc(COc2noc3c2CCNCC3)cc1
experimental-system: 5-hydroxytryptamine receptor 2A (Homo sapiens, UniProt P28223)
test-value: 6.62

Prompt: Any idea what pEC50 came out for O=C1Nc2cc(Cl)c(Cl)cc2N2CCNCC12 (stereo not drawn) on 5-hydroxytryptamine receptor 2A (Homo sapiens, UniProt P28223)?
Response: 7.92

Prompt: Requested read-out pEC50, target or system 5-hydroxytryptamine receptor 2A (Homo sapiens, UniProt P28223), entry `CCOc1noc2c1CCNCC2`
Response: 5.10

* * *

- experimental-system: UniProt:P28335
- procedure-text: Agonist activity at human 5HT2C receptor expressed in HEK293 cells assessed as accumulation of IP1 incubated for 1 hr at 37 degC followed by 15 mins at RT by TR-FRET assay relative to 5HT
- Assay type: functional, cell-based
measured-property: Emax (%)
// note: answer is a bare numeric in %

Sample answers from the record:
compound: O=c1c2c(on1Cc1ccccc1)CCNCC2
experimental-system: UniProt:P28335
result-unit: %
Emax: 92
--
compound: Cn1c2c(c3ccccc31)CCNCC2 [PNU-22394]
experimental-system: UniProt:P28335
result-unit: %
Emax: 97
--
compound: c1ccc(COc2noc3c2CCNCC3)cc1
experimental-system: UniProt:P28335
result-unit: %
Emax: 105
--
compound: Clc1cccc(COc2cncc(N3CCNCC3)n2)c1
experimental-system: UniProt:P28335
result-unit: %
Emax: 109

Below: the item to evaluate.
Prompt: Dear colleague, I am looking for the recorded Emax of the following compound: Clc1cncc(N2CCNCC2)n1 [MK-212]
Response: 93

* * *

- experimental-system: 5-hydroxytryptamine receptor 2A (Homo sapiens)
- procedure-text: Agonist activity at human 5HT2A receptor expressed in HEK293 cells assessed as accumulation of IP1 incubated for 1 hr at 37 degC followed by 15 mins at RT by TR-FRET assay relative to 5HT
- Type: functional, cell-based
compounds and their reported Emax
Number in %, nothing else.

compound: Cn1c2c(c3ccccc31)CCNCC2 [PNU-22394]
experimental-system: 5-hydroxytryptamine receptor 2A (Homo sapiens)
result-unit: %
Emax: 98

compound: O=c1c2c(on1Cc1ccccc1)CCNCC2
experimental-system: 5-hydroxytryptamine receptor 2A (Homo sapiens)
result-unit: %
Emax: 95

compound: Clc1cccc(COc2cncc(N3CCNCC3)n2)c1
experimental-system: 5-hydroxytryptamine receptor 2A (Homo sapiens)
result-unit: %
Emax: 90

compound: c1ccc(COc2noc3c2CCNCC3)cc1
experimental-system: 5-hydroxytryptamine receptor 2A (Homo sapiens)
result-unit: %
Emax: 77

Prompt: Consider the compound Clc1cncc(N2CCNCC2)n1 [MK-212] and give its measured Emax.
Response: 101

* * *

- experimental-system: 5-hydroxytryptamine receptor 2A (Homo sapiens, UniProt P28223)
- procedure-text: Agonist activity at human 5HT2A receptor expressed in HEK293 cells assessed as induction of intracellular calcium release by fluorescence assay relative to 5HT
- Type: functional, cell-based
Threshold check on Emax: strictly below 80% is class 1; on or above 80% is class 0.

Below are worked cases with known answers.
molecule: Cn1c2c(c3ccccc31)CCNCC2
group-label: class 0
--
molecule: O=C1Nc2cc(Cl)c(Cl)cc2N2CCNCC12 (stereo not drawn)
group-label: class 0
--
molecule: CCOc1noc2c1CCNCC2
group-label: class 1
--
molecule: Clc1cccc(COc2cncc(N3CCNCC3)n2)c1
group-label: class 0

Prompt: Please let me know if `c1ccc(COc2noc3c2CCNCC3)cc1` shows Emax below 80%.
Response: class 1

Prompt: State whether 80% exceeds Emax recorded for `Clc1cncc(N2CCNCC2)n1` .
Response: class 0

Prompt: Lab note: Emax threshold 80%. Does this molecule come in strictly under it? `C[C@H](N)Cn1ccc2cc(F)c(Cl)cc21`
Response: class 0

* * *

- experimental-system: UniProt P28223
- Format: functional, cell-based, HEK293
- conditions-used: read-out: Ki
measured-property: pKi
Reminder that pKi is minus the log10 of a molar concentration.

Prompt: Item CN1CC2c3ccccc3Oc3ccc(Cl)cc3C2C1 (racemic) with UniProt P28223 - pKi?
Response: 9.04

* * *

- experimental-system: 5-hydroxytryptamine receptor 2C (Rattus norvegicus) (UniProt P08909)
- procedure-text: Displacement of [125I]-N-(p-I-Bn)-THAZ from 5HT2C receptor in rat cerebellum membrane after 1 hr by scintillation counting analysis
- Assay type: cell membranes
Active and inactive are the calls of the source. No cut-off for these calls is given here.

molecule: NCCc1c[nH]c2ccc(O)cc12
Activity: inactive
//
molecule: O=c1c2c(on1Cc1ccc(I)cc1)CCNCC2
Activity: inactive
//
molecule: O=c1c2c(on1Cc1ccccc1)CCNCC2
Activity: inactive
//
molecule: CN1CCN2c3ccccc3Cc3ccccc3C2C1 (centres undefined)
Activity: inactive

* * *

- experimental-system: 5-hydroxytryptamine receptor 2C (Rattus norvegicus, UniProt P08909)
- Sequence (P08909 whole entry): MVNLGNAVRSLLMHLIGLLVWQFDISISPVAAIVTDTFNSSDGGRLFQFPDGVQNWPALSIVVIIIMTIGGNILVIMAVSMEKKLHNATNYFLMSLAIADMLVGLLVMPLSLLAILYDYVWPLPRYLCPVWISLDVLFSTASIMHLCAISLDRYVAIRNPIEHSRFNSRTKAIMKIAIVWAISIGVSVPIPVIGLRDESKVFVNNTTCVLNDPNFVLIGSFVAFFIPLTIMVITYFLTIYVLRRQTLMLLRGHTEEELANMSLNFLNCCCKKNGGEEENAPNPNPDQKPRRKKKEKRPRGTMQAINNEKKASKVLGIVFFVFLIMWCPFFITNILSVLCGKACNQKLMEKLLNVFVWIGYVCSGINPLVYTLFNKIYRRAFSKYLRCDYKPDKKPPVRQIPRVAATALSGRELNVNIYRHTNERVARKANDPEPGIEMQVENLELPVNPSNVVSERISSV
measured-property: Ki (nM)
Please give a number only; it is taken to be in nM.

Prompt: Given the entry `O=c1c2c(on1Cc1ccccc1)CCNCC2` , report its measured Ki.
Response: 724

* * *

Entries annotated with measured pEC50
- experimental-system: UniProt:P28223
- procedure-text: Agonist activity at human 5HT2A receptor expressed in HEK293 cells assessed as induction of intracellular calcium release measured for 90 secs by fluorescence assay
- Format: functional, cell-based
- conditions-used: hek293; read-out: EC50
pEC50: −log10 of the molar value.

Field: example entries. Status: answers known.
input-smiles: Oc1noc2c1CCNCC2
pEC50: < 3.00
--
input-smiles: O=c1c2c(on1Cc1ccccc1)CCNC2
pEC50: < 3.00
--
input-smiles: CCOc1noc2c1CCN(C)CC2
pEC50: < 3.00
--
input-smiles: COc1noc2c1CCN(C)CC2
pEC50: < 3.00

// switching to the query molecule
Prompt: Give the reported pEC50 for `CCn1oc2c(c1=O)CCN(C)CC2` (system: UniProt:P28223).
Response: < 3.00

* * *

- experimental-system: 5-hydroxytryptamine receptor 2A (Homo sapiens)
- procedure-text: Agonist activity at human 5HT2A receptor expressed in HEK293 cells assessed as induction of intracellular calcium release measured for 90 secs by fluorescence assay
- Assay type: functional, cell-based
- conditions-used: hek293; read-out: EC50
measured-property: EC50

input-smiles: CCn1oc2c(c1=O)CNCC2
EC50: > 1000 µM
//
input-smiles: CCOc1noc2c1CCNC2
EC50: > 1000 µM

Prompt: Which EC50 is reported for this compound? `Cn1oc2c(c1=O)CNCC2`
Response: > 1000 µM

* * *

- experimental-system: 5-hydroxytryptamine receptor 2C (Homo sapiens)
- Sequence (P28335 whole entry): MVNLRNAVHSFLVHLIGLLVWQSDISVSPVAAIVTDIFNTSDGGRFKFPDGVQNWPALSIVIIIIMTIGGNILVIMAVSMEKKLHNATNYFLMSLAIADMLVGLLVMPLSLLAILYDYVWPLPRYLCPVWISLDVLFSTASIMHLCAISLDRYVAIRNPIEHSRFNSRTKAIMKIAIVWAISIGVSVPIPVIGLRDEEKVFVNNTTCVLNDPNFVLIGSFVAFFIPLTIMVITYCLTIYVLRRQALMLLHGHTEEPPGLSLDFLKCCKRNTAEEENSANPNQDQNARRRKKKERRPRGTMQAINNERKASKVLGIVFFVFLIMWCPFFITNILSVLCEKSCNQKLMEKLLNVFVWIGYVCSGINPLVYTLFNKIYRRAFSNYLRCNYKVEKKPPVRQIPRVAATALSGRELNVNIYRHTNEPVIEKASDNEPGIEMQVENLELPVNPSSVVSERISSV
- procedure-text: Displacement of [3H]mesulergine from human 5HT2C receptor expressed in tsA201 cell membranes after 1 hr by scintillation counting analysis
Each record here notes measured Ki.
Numbers only; they are read as µM.

compound: O=c1c2c(on1Cc1cccc(I)c1)CCNCC2
Ki [µM]: 4.8
--
compound: O=c1c2c(on1Cc1ccccc1)CCNCC2
Ki [µM]: 2.3
--
compound: COc1noc2c1CCNCC2
Ki [µM]: 300
--
compound: O=c1c2c(on1Cc1ccccc1I)CCNCC2
Ki [µM]: 7.2
--
compound: Clc1cccc(COc2cncc(N3CCNCC3)n2)c1
Ki [µM]: 0.0093
--
compound: O=c1c2c(on1Cc1ccc(I)cc1)CCNCC2
Ki [µM]: 0.31

Now for another entry.
Prompt: Write down the reported Ki of `c1ccc(COc2noc3c2CCNCC3)cc1` , test system: 5-hydroxytryptamine receptor 2C (Homo sapiens).
Response: 1.2

* * *

- experimental-system: UniProt:P28223
- procedure-text: biochemical
- Format: cell-based, tsA201
- conditions-used: read-out: Ki
- Description: Displacement of [3H]ketanserin from human 5HT2A receptor expressed in tsA201 cell membranes after 1 hr by scintillation counting analysis
pKi: −log10 of the molar value.
Please use y whenever pKi is not below 4, and n whenever it is.

Below, 5 compounds whose answers are already recorded.
input-smiles: CN1CCc2on(C)c(=O)c2CC1
group-label: n
--
input-smiles: Clc1cncc(N2CCNCC2)n1
group-label: y
--
input-smiles: COc1noc2c1CCN(C)CC2
group-label: n
--
input-smiles: CCOc1noc2c1CCN(C)CC2
group-label: n
--
input-smiles: O=c1c2c(on1Cc1ccccc1)CCNCC2
group-label: y

Prompt: Please check the record `Clc1cccc(COc2cncc(N3CCNCC3)n2)c1` and state if its pKi is at or above 4.
Response: y

Prompt: Reported pKi reaches at least 4 for `CCn1oc2c(c1=O)CCN(C)CC2` ?
Response: n
